FYI, the data here is from ChEMBL document CHEMBL1201862.

# ASSAYED TARGET: DNA repair and recombination protein RAD54-like (Homo sapiens, UniProt Q92698)
# Sequence (Q92698 whole entry): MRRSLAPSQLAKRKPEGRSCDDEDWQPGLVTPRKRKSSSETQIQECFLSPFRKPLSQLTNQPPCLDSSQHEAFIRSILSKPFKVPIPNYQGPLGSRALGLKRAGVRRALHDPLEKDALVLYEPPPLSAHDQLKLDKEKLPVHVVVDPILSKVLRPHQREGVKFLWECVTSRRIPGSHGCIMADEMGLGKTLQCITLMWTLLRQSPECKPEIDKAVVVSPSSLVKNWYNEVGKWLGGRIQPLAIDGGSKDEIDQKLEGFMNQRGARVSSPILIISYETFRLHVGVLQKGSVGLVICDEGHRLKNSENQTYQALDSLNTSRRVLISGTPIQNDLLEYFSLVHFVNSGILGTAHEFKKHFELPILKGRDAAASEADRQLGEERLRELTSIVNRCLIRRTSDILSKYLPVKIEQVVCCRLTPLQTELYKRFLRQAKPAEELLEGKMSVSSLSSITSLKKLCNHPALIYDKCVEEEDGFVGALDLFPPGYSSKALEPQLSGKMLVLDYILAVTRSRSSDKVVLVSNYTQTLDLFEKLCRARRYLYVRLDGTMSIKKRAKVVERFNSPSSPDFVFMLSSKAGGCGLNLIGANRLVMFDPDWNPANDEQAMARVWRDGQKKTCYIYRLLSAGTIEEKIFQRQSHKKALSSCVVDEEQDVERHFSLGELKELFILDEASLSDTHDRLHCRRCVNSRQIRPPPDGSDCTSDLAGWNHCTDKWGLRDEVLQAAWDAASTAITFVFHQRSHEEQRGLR
# ASSAY EXPLANATION: inhibitors of human RAD54 branch migration, confirmation, biochemical, fluorescence, cherry-picked samples, dose series (AID 651657)
# Format: functional
The source made the active and inactive calls.
OBSERVED PROPERTY: AC50

Use the examples below as a reference point.
INSERT INTO measurements (mol, result) VALUES
  ('Cn1c2ccccc2c(=O)c2cc(NCCCN3CCOCC3)ccc21', '11.7 µM (active)'),
  ('CCc1nc(Nc2ccncc2)c2oc3ccccc3c2n1', '15.5 µM (active)'),
  ('CCN(CC)CCNc1nc(SC)nc2sc3c(c12)CCN(C)C3', '95.3 µM (active)'),
  ('Cc1ccc(-c2nc(N3CCN(C)CC3)c3ccccc3n2)cc1', '41.3 µM (active)');

Then this molecule:
In: Give a short answer stating reported AC50 for `CCN(CC)CCN(C(=O)c1ccc2ncsc2c1)c1nc2cc3c(cc2s1)OCO3` .
Out: 51.9 µM (active)

---

# ASSAYED TARGET: Type-1 angiotensin II receptor (Homo sapiens)
# Sequence (P30556 whole entry): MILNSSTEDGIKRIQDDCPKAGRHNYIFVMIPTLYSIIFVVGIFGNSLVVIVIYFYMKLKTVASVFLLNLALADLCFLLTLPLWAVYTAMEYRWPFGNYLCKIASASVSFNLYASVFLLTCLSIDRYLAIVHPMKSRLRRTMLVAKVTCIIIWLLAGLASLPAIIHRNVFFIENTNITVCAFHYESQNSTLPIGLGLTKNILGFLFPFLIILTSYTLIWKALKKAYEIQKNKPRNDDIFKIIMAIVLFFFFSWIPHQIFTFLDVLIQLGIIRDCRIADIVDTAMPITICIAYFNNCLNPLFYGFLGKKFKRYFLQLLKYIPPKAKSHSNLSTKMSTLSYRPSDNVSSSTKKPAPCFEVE
# ASSAY EXPLANATION: AT1 receptor antagonists, dose response, selectivity assay for APJ receptor antagonist project, cell-based, uHTS hits (AID 463214);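 also: antagonist potency against angiotensin II stimulated AT1 response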
# Format: functional
Active and inactive are the calls of the source.
Each item that follows carries a reported IC50.

Example results:
INSERT INTO results (molecule, result) VALUES
  ('Cn1c(O)c(N=Nc2nc(-c3ccccc3)cs2)c2ccccc21', '> 40 µM (not active)'),
  ('O=C(CN1C(=O)C2CC=CCC2C1=O)OCC(=O)c1ccc(Cl)c([N+](=O)[O-])c1 (centres undefined)', '16.3 µM (active)'),
  ('Cn1nnc(NC(=S)NC(=O)c2cccc3ccccc23)n1', '> 40 µM (not active)');

In: Provide one value: measured IC50 of CCSC1(SCC)N=C(N)C2(C#N)C(c3ccc(OC)c(OC)c3OC)C12C#N (centres undefined)
Out: 27.5 µM (not active)

---

Recorded AC50, one value per entry.
# ASSAYED TARGET: Paired box protein Pax-8 (Homo sapiens, UniProt Q06710)
# Sequence (Q06710 whole entry): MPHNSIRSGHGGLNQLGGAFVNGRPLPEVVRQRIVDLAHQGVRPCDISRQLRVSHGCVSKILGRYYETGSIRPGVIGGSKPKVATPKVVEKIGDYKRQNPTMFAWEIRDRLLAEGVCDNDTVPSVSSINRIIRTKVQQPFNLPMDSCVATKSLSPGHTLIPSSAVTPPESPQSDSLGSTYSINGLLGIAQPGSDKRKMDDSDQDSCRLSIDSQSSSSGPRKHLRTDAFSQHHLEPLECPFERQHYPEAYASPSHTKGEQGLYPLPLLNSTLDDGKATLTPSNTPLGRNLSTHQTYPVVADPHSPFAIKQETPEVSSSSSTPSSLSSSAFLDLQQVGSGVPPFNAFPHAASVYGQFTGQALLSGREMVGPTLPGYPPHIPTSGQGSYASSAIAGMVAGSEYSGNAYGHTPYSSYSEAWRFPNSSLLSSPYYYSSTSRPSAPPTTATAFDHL
# ASSAY EXPLANATION: inhibitors of PAX8-driven TPO luciferase reporter, dose response, RMG-I cells, cherry-pick (AID 687027);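 also: luciferase reporter driven by Pax8 target thyroperoxidase promoter measured by SteadyGlo luminescence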
# Assay type: functional, cell-based
Activity calls are given as the source filed them.

INSERT INTO measurements (compound, result) VALUES
  ('O=C(NC1CCCCC1)C(c1cccnc1)N(C(=O)CCl)c1ccc(F)cc1 (stereo unspecified)', '1.43 µM (active)'),
  ('COc1ccc(S(=O)(=O)Nc2ccc3c(c2)C(=O)N([C@H](C)CO)C[C@H](C)[C@H](CN(C)S(=O)(=O)c2ccc(F)cc2)OCCCC[C@H](C)O3)cc1', '4.78 µM (active)'),
  ('C=CCN1C(=O)/C(=C/c2ccc(OC(C)=O)c(OCC)c2[N+](=O)[O-])SC1=S', '5.91 µM (active)'),
  ('C[C@@H]1CN([C@H](C)CO)C(=O)c2cc(NC(=O)Nc3ccccc3)ccc2O[C@@H](C)CCCCO[C@@H]1CN(C)Cc1ccc(C(F)(F)F)cc1', '6.35 µM (active)'),
  ('O=C(C[C@@H]1C/C=C/CC[C@H](Cc2ccc(F)cc2)C(=O)OC[C@@H](Cc2ccccc2)NC1=O)N[C@H](CO)Cc1ccccc1', '15 µM (active)');

In: // Input: CCOc1ccc(C(=O)C(CCC(CN(C)C)C(=O)c2ccc(OCC)cc2)CN(C)C)cc1 (stereo unspecified) . Output its AC50 only.
Out: 4.27 µM (active)
